What Relative Activity (relative luciferase activity) was measured for each of the following?
Molecular target: LXRα (Homo sapiens)
Construct: expressed in transfected cells; host or cells: 293 cells
Sequence (Q13133 209-447 limits assumed): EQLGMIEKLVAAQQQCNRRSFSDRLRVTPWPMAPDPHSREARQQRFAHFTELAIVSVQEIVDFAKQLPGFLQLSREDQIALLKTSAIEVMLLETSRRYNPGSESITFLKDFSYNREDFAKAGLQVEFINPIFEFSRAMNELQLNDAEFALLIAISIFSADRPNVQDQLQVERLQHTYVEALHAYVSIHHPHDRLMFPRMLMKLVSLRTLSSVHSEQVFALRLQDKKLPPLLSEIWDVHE
Experiment: cell-based GAL4-LXRα ligand-binding domain luciferase reporter screen for agonists
Details: 10 μM compound; transfected 293 cells; relative to control (no additional compound) assigned a value of 1
Protocol: In order to identify agonists for LXRα, a cell-based high throughput screen was developed. Briefly, a DNA-binding domain of the nonreceptor transcription factor GAL4 was fused to the putative ligand-binding domain of LXRα. […] The transfected cells were then treated with the compounds and luciferase activity was measured. Individual compounds were evaluated relative to a control (no additional compound) at a concentration of 10 μM. […]
Lab note: jot the number down without any unit.

*Q* What does the data say about its Relative Activity (relative luciferase activity)? Entry: CC(c1ccco1)N(C(=O)C12CC3CC(CC(C3)C1)C2)c1ccccc1 (centres unmarked) [Example 4]
*A* 3

*Q* What does the data say about its Relative Activity (relative luciferase activity)? Entry: CC(c1ccco1)N(C(=O)C12CC3CC(CC(C3)C1)C2)c1ccccn1 (centres unmarked) [Example 1]
*A* 4

*Q* What does the data say about its Relative Activity (relative luciferase activity)? Entry: CC(c1ccco1)N(C(=O)C12CC3CC(CC(C3)C1)C2)c1cccnc1 (centres unmarked) [Example 2]
*A* 5
